Form field: protein stability index (one value per entry).
B1: TRAF3IP2 (parent)
chain: APWNYHYHCPGSPDHQVPYGHDYP

# Variants of: B1
# TEST NAME: protein stability index of a GFP-peptide fusion (GPS, HEK-293T) (PSI 1-6); higher = more stable;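 also: lentivirally expressed fusions sorted by FACS into six bins by GFP to DsRed ratio, PSI derived from sequencing read proportions per bin multiplied by bin number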
# COND: c terminus: a fixed tail appended
MEASUREMENT KIND: protein stability index

| MUTATION ANNOTATION | ASSAY RESULT |
| --- | --- |
| P10C | 1.5 |
| D22Q | 2.16 |
| H21R | 2.4 |
| Y7V | 2.67 |
| P18R | 2 |
| N4I | 2.43 |
| H21I | 1.74 |
| G11L | 2.31 |
